- Tested system: hCA XII (Homo sapiens, UniProt O43570)
- Construct: gene CA12; recombinant, obtained in-house
- Sequence (O43570 25-354): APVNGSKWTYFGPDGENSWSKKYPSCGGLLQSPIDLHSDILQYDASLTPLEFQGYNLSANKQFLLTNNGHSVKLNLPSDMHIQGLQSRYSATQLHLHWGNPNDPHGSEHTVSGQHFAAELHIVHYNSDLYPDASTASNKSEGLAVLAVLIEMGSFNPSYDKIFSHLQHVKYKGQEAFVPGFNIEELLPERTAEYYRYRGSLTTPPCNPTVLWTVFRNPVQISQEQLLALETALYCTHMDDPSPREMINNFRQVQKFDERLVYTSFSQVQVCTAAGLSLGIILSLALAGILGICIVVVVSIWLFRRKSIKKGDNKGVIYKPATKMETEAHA
- Assay method text: stopped-flow CO2 hydration
- Format: biochemical
- Conditions: read-out: Ki (nM)^b / hCA XII
Measurement name: log10 of Ki (log10 of the value in nM)

Compound	log10 of Ki
NS(=O)(=O)NC1CCCc2ccccc21 (stereo not drawn)	1.78
CN(C)CCN(Cc1ccccc1)S(N)(=O)=O [2i, Benzyl (2-(dimethylamino)ethyl)sulfamide]	1.29
NS(=O)(=O)NCC1CCCO1 (stereo not drawn)	1.99
NS(=O)(=O)Nc1ncccn1 [2s, N-(Pyrimidin-2-yl)sulfamide]	1.59
CN1CCN(S(N)(=O)=O)CC1 [2b, 4-Methylpiperazine-1-sulphonamide]	1.72
NS(=O)(=O)NCc1ccc(F)cc1 [2c, N-(4-Fluorobenzyl)sulfamide]	1.71
NS(=O)(=O)N1CCC(O)CC1 [2a, 4-Hydroxypiperidine-1-sulphonamide]	1.40
NS(=O)(=O)Nc1ccc(F)cc1F [2w, N-(2,4-Difluorophenyl)sulfamide]	2.35
COC(=O)C1CCCN1S(N)(=O)=O (stereo not drawn) [2f, Methyl sulfamoylprolinate]	1.92

* * *

- Tested system: hCA XII (Homo sapiens)
- Construct: gene CA12; recombinant, obtained in-house
- Assay method text: stopped-flow CO2 hydration
- Assay type: biochemical
- Conditions: read-out: Ki (nM)^b / hCA XII

Compound	Ki [nM]
NS(=O)(=O)NCc1cccnc1 [2j, (Pyridin-3-ylmethyl)sulfamide]	16.5
NS(=O)(=O)Nc1cccc2ccccc12 [2u, N-(Naphthalen-1-yl)sulfamide]	72.3
NS(=O)(=O)N1CCOCC1 [2o, Morpholine-4-sulphonamide]	101
CN1CCC(NS(N)(=O)=O)CC1 [2g, (1-Methylpiperidin-4-yl)sulfamide]	38.4
CCOC(=O)C1CCN(S(N)(=O)=O)CC1	25.9

* * *

- Tested system: hCA IX (Homo sapiens, UniProt Q16790)
- Construct: gene CA9; recombinant, obtained in-house
- Assay method text: stopped-flow CO2 hydration
- Format: biochemical
- Conditions: read-out: Ki (nM)^b / hCA IX
Counter-ions that a name gives are not always drawn.
Measurement name: Ki (nM)

Compound	Tested system	Measured number
NS(=O)(=O)NCc1ccc(F)cc1 [2c, N-(4-Fluorobenzyl)sulfamide]	hCA IX (Homo sapiens, UniProt Q16790)	30.7
COC(=O)C1CCCN1S(N)(=O)=O (stereo not shown) [2f, Methyl sulfamoylprolinate]	hCA IX (Homo sapiens, UniProt Q16790)	78.2
NS(=O)(=O)N1CCNCC1 [2q, Piperazine-1-sulphonamide hydrochloride]	hCA IX (Homo sapiens, UniProt Q16790)	78.2
NS(=O)(=O)N1CCC(O)CC1 [2a, 4-Hydroxypiperidine-1-sulphonamide]	hCA IX (Homo sapiens, UniProt Q16790)	54.2

* * *

- Tested system: hCA I (Homo sapiens)
- Construct: gene CA1; recombinant, obtained in-house
- Sequence (P00915 2-261): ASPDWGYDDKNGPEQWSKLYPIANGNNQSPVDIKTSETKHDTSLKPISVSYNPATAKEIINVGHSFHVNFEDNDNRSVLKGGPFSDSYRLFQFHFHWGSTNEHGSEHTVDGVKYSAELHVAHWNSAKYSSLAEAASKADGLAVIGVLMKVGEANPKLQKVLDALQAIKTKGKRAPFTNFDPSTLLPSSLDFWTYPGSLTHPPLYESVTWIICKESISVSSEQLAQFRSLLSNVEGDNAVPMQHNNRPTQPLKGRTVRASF
- Assay method text: stopped-flow CO2 hydration
- Assay type: biochemical
- Conditions: read-out: Ki (nM)^b / hCA I
Counter-ions that a name gives are not always drawn.
Measured Ki values are reported for all entries that follow.
Measurement name: Ki

Compound	Tested system	Result
NS(=O)(=O)NCc1cccnc1 [2j, (Pyridin-3-ylmethyl)sulfamide]	hCA I (Homo sapiens)	98.5 nM
NC(=O)C1CCN(S(N)(=O)=O)CC1 [2p, 1-Sulfamoylpiperidine-4-carboxamide]	hCA I (Homo sapiens)	88.2 nM
CN(C)CCN(Cc1ccccc1)S(N)(=O)=O [2i, Benzyl (2-(dimethylamino)ethyl)sulfamide]	hCA I (Homo sapiens)	28.4 nM
NS(=O)(=O)NCc1ccc(F)cc1 [2c, N-(4-Fluorobenzyl)sulfamide]	hCA I (Homo sapiens)	126 nM
NS(=O)(=O)NCC1CCCO1 (stereo not shown) [2e]	hCA I (Homo sapiens)	38.4 nM
NS(=O)(=O)N1CCc2ccccc21 [2v, Indoline-1-sulphonamide]	hCA I (Homo sapiens)	723 nM
CN1CCC(NS(N)(=O)=O)CC1 [2g, (1-Methylpiperidin-4-yl)sulfamide]	hCA I (Homo sapiens)	89.7 nM
COC(=O)C1CCCN1S(N)(=O)=O (stereo not shown) [2f, Methyl sulfamoylprolinate]	hCA I (Homo sapiens)	52.1 nM
NS(=O)(=O)NC1CCCc2ccccc21 (stereo not shown) [2d]	hCA I (Homo sapiens)	121 nM
NS(=O)(=O)NCc1cccs1 [2k, (Thiophen-2-ylmethyl) sulfamide]	hCA I (Homo sapiens)	22.6 nM
NS(=O)(=O)Nc1ccc(F)cc1F [2w, N-(2,4-Difluorophenyl)sulfamide]	hCA I (Homo sapiens)	45.7 nM
NS(=O)(=O)N1CCC(O)CC1 [2a, 4-Hydroxypiperidine-1-sulphonamide]	hCA I (Homo sapiens)	75.6 nM
NS(=O)(=O)Nc1cccc2ccccc12 [2u, N-(Naphthalen-1-yl)sulfamide]	hCA I (Homo sapiens)	160 nM
NS(=O)(=O)Nc1ncccn1 [2s, N-(Pyrimidin-2-yl)sulfamide]	hCA I (Homo sapiens)	29.6 nM
NS(=O)(=O)N1CCC(c2ccccc2)CC1 [2h, 4-Phenylpiperidine-1-sulphonamide]	hCA I (Homo sapiens)	359 nM
CC1Cc2ccccc2N1S(N)(=O)=O (stereo not shown) [2r, 2-Methylindoline-1-sulphonamide]	hCA I (Homo sapiens)	868 nM
CN1CCN(S(N)(=O)=O)CC1 [2b, 4-Methylpiperazine-1-sulphonamide]	hCA I (Homo sapiens)	64.2 nM
NS(=O)(=O)N1CCNCC1 [2q, Piperazine-1-sulphonamide hydrochloride]	hCA I (Homo sapiens)	68.9 nM
NS(=O)(=O)N1CCCc2ccccc21 [2t, 3,4-Dihydroquinoline-1(2H)-sulphonamide]	hCA I (Homo sapiens)	231 nM

* * *

Below, each entry is listed with its recorded Ki.
- Tested system: hCA XII (Homo sapiens, UniProt O43570)
- Construct: gene CA12; recombinant, obtained in-house
- Assay method text: stopped-flow CO2 hydration
- Type: biochemical
- Conditions: read-out: Ki (nM)^b / hCA XII
Structures can show the parent of a compound that is named as a salt.
Measurement name: Ki

Compound	Tested system	Result
NS(=O)(=O)N1CCC(N2CCCCC2)CC1 [2n, [1,4'-Bipiperidine]-1'-sulphonamide]	hCA XII (Homo sapiens, UniProt O43570)	35.1 nM
NS(=O)(=O)N1CCC(c2ccccc2)CC1 [2h, 4-Phenylpiperidine-1-sulphonamide]	hCA XII (Homo sapiens, UniProt O43570)	96.7 nM
CCN(CC)CCN(C)S(N)(=O)=O [2l, (2-(Diethylamino)ethyl)(methyl)sulfamide]	hCA XII (Homo sapiens, UniProt O43570)	72.5 nM
NS(=O)(=O)N1CCNCC1 [2q, Piperazine-1-sulphonamide hydrochloride]	hCA XII (Homo sapiens, UniProt O43570)	100 nM

* * *

List of Ki values.
- Tested system: hCA II (Homo sapiens, UniProt P00918)
- Construct: gene CA2; recombinant, obtained in-house
- Assay method text: stopped-flow CO2 hydration
- Assay type: biochemical
- Conditions: read-out: Ki (nM)^b / hCA II
Measurement name: Ki (nM)

Compound	Measured number
NS(=O)(=O)Nc1ccc(F)cc1F [2w, N-(2,4-Difluorophenyl)sulfamide]	76.3
NS(=O)(=O)NCc1cccs1 [2k, (Thiophen-2-ylmethyl) sulfamide]	48.2
NC(=O)C1CCN(S(N)(=O)=O)CC1 [2p, 1-Sulfamoylpiperidine-4-carboxamide]	59.4

* * *

- Tested system: hCA IX (Homo sapiens, UniProt Q16790)
- Construct: gene CA9; recombinant, obtained in-house
- Assay method text: stopped-flow CO2 hydration
- Format: biochemical
- Conditions: read-out: Ki (nM)^b / hCA IX
Mark yes for Ki under 60 nM, no if at or over.

Compound	Category
NS(=O)(=O)N1CCC(N2CCCCC2)CC1 [2n, [1,4'-Bipiperidine]-1'-sulphonamide]	no
NS(=O)(=O)NCc1cccs1 [2k, (Thiophen-2-ylmethyl) sulfamide]	no
CCOC(=O)C1CCN(S(N)(=O)=O)CC1	yes
NS(=O)(=O)Nc1ccc(F)cc1F [2w, N-(2,4-Difluorophenyl)sulfamide]	yes
NS(=O)(=O)N1CCOCC1 [2o, Morpholine-4-sulphonamide]	no
NS(=O)(=O)Nc1ncccn1 [2s, N-(Pyrimidin-2-yl)sulfamide]	no
NS(=O)(=O)N1CCCc2ccccc21 [2t, 3,4-Dihydroquinoline-1(2H)-sulphonamide]	yes
NS(=O)(=O)N1CCc2ccccc21 [2v, Indoline-1-sulphonamide]	no
NS(=O)(=O)NCC1CCCO1 (stereo not shown)	no
CCN(CC)CCN(C)S(N)(=O)=O [2l, (2-(Diethylamino)ethyl)(methyl)sulfamide]	no
CN(C)CCN(Cc1ccccc1)S(N)(=O)=O [2i, Benzyl (2-(dimethylamino)ethyl)sulfamide]	no
NS(=O)(=O)NCc1cccnc1 [2j, (Pyridin-3-ylmethyl)sulfamide]	yes
CC1Cc2ccccc2N1S(N)(=O)=O (stereo not shown) [2r, 2-Methylindoline-1-sulphonamide]	no
NS(=O)(=O)NC1CCCc2ccccc21 (stereo not shown)	yes
